- Test system: DSS-Induced inflammatory Bowel Disease Models in Mice
- Method summary: DSS-induced inflammatory bowel disease model in mice (Biological Example 5, 1.3% DSS)
- Format: in vivo, C57BL/6 mice
- Study conditions: Mus musculus, po; 30 mg/Kg i.g. Q.D; 1.3% DSS days 0-5; read-out: Inhibitory Rate of Colonic Reduction
Listing of entries alongside the reported inhibition in vivo at 30 mg/kg.
State the value, then name its unit.

Please fill in: inhibition in vivo at 30 mg/kg reported for CS(=O)(=O)CCN1C(=O)CCC(N2C(=O)c3cccc(N)c3C2=O)C1=O (centres unmarked) = 100%

Please fill in: inhibition in vivo at 30 mg/kg reported for CCOCCN1C(=O)CCC(N2C(=O)c3cccc(F)c3C2=O)C1=O (centres unmarked) = 100%

Please fill in: inhibition in vivo at 30 mg/kg reported for COCCN1C(=O)CCC(N2C(=O)c3cccc(C)c3C2=O)C1=O (centres unmarked) = 81.8%

Please fill in: inhibition in vivo at 30 mg/kg reported for COCCN1C(=O)CCC(C)(N2C(=O)c3cccc(N)c3C2=O)C1=O (centres unmarked) = 72.7%

Please fill in: inhibition in vivo at 30 mg/kg reported for C[S+]([O-])CCN1C(=O)CCC(N2C(=O)c3cccc(N)c3C2=O)C1=O (centres unmarked) = 109%
